Target: T1, HLA-A*24:02 (human, biotinylated heavy chain)
T1 construct: Conditional HLA class I complex as for m1
Assay: UV peptide exchange; HLA class I ELISA
Label Satisfied when Exch II (%) is at or above 6%; otherwise label Not satisfied.

INSERT INTO measurements (binder, class_name) VALUES
  ('KQLIAMDSA [Peptide 9, 9-mer KQLIAMDSA derived from P22 (SEQ ID NO: 1003)]', 'Not satisfied'),
  ('HREKQLIAM [Peptide 7, 9-mer HREKQLIAM derived from P22 (SEQ ID NO: 1003)]', 'Not satisfied'),
  ('YHREKQLIA [Peptide 6, 9-mer YHREKQLIA derived from P22 (SEQ ID NO: 1003)]', 'Satisfied'),
  ('SLIAMDSAI [Peptide 3, 9-mer SLIAMDSAI derived from FUS1 (SEQ ID NO: 1001)]', 'Not satisfied'),
  ('LYHREKQLI [Peptide 5, 9-mer LYHREKQLI derived from P22 (SEQ ID NO: 1003)]', 'Satisfied'),
  ('IAMDSAITL [Peptide 2, 9-mer IAMDSAITL derived from FUS1 (SEQ ID NO: 1001)]', 'Satisfied'),
  ('SLYHREKQL [Peptide 4, 9-mer SLYHREKQL derived from P22 (SEQ ID NO: 1003)]', 'Satisfied'),
  ('LIAMDSAIT [Peptide 10, 9-mer LIAMDSAIT derived from P22 (SEQ ID NO: 1003)]', 'Not satisfied');

The measured values listed here are drawn from patent US20230029453A1.
